Target: T1, human CD52 (wildtype) (human, not fully specified (residue 3); also: N-linked glycan, GPI anchor)
T1 construct: also called huCD52; hCD52
T1 chain: GQNDTSQTSSPS
Test: flow cytometry, huCD52 transgenic mouse CD4+ T cells, FITC goat F(ab)2 anti-human Fc gamma secondary, GraphPad Prism fit (Example 29)
Ends that are not written are not given here.
MEASURED_ENDPOINT: pEC50
Please treat pEC50 as minus the base-10 logarithm of the molar concentration.

For this binder ( chimeric 2C3 antibody (antibody, human IgG1, V domains shown, also called 2C3-Chi; 2C3-chimeric) VH: EVKLEESGGGLVQPGGSMKLSCVASGFTFNTYWMNWVRQSPEKGLEWVAQIRLKSNNYATHYAESVKGRFTISRDDSKNSVYLQMNNLRAEDTGIYYCTPVDFWGQGTTLTVSS VL: DIVITQTPLTLSVTIGQPVSISCKSSQSLLYSNGKTYLNWLLQRPGQSPKRLIYLVSKLDSGVPDRFTGSGSGTDFTLKISRVEAEDLGVYYCVQGTHLHTFGAGTKLELK ), measured pEC50 is 7.51

These measurements were taken from patent US20120100152A1.
